# Measurement target: Sodium/hydrogen exchanger 1 (Rattus norvegicus)
# Sequence (P26431 whole entry): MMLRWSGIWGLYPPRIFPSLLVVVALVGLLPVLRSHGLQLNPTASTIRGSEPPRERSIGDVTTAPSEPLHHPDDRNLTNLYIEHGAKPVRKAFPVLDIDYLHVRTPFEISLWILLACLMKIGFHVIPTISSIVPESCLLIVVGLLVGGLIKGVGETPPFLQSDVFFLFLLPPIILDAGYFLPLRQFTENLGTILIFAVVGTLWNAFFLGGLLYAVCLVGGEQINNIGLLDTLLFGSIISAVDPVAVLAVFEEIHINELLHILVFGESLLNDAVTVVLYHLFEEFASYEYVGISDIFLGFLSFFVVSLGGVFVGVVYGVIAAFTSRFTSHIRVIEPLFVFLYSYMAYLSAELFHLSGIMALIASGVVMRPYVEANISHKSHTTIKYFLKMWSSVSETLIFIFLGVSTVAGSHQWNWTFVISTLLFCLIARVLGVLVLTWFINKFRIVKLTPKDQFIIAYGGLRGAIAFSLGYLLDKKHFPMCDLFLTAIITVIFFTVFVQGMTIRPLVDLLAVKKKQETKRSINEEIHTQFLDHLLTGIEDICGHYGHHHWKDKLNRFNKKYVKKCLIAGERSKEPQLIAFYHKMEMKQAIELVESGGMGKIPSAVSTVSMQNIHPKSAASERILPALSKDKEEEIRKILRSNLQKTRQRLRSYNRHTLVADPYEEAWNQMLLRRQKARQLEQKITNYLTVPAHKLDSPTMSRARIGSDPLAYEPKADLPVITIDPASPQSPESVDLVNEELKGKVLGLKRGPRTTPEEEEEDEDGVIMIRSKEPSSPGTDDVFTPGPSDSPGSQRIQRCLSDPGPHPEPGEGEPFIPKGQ
# Protocol text: Inhibition of NHE1 in Sprague-Dawley rat platelet-rich plasma by optical swelling assay
pIC50: −log10 of the molar value.
Recorded endpoint: pIC50

Completed entries (count: 3):
NC(N)=N/N=C1\c2cc(F)ccc2CC1Sc1nc2cc([N+](=O)[O-])ccc2[nH]1 (stereo not given)	7.42
Cl.Cl.NC(N)=N/N=C1\c2ccccc2CC1Sc1nc2ccccc2[nH]1 (stereo not given)	8.76
COc1cc2c(c(OC)c1OC)CC(Sc1nc3ccccc3s1)/C2=N/N=C(N)N (stereo not given)	8.70

A = NC(N)=N/N=C1\c2ccc([N+](=O)[O-])cc2CC1Sc1nc2ccccc2[nH]1 (stereo not given)
B = NC(N)=N/N=C1\c2cc(Cl)ccc2CC1Sc1nc2ccccc2[nH]1 (stereo not given)
# query: argmin of pIC50 over A and B I would appreciate it if you answered with the label of your choice.
B
(B: 6.49, A: 8.93)
